pIC50: −log10 of the molar value.
List of pIC50 tested on ALK tyrosine kinase receptor (Homo sapiens, UniProt Q9UM73, G1202R).
Sequence (Q9UM73 19-1620 G1202R limits assumed): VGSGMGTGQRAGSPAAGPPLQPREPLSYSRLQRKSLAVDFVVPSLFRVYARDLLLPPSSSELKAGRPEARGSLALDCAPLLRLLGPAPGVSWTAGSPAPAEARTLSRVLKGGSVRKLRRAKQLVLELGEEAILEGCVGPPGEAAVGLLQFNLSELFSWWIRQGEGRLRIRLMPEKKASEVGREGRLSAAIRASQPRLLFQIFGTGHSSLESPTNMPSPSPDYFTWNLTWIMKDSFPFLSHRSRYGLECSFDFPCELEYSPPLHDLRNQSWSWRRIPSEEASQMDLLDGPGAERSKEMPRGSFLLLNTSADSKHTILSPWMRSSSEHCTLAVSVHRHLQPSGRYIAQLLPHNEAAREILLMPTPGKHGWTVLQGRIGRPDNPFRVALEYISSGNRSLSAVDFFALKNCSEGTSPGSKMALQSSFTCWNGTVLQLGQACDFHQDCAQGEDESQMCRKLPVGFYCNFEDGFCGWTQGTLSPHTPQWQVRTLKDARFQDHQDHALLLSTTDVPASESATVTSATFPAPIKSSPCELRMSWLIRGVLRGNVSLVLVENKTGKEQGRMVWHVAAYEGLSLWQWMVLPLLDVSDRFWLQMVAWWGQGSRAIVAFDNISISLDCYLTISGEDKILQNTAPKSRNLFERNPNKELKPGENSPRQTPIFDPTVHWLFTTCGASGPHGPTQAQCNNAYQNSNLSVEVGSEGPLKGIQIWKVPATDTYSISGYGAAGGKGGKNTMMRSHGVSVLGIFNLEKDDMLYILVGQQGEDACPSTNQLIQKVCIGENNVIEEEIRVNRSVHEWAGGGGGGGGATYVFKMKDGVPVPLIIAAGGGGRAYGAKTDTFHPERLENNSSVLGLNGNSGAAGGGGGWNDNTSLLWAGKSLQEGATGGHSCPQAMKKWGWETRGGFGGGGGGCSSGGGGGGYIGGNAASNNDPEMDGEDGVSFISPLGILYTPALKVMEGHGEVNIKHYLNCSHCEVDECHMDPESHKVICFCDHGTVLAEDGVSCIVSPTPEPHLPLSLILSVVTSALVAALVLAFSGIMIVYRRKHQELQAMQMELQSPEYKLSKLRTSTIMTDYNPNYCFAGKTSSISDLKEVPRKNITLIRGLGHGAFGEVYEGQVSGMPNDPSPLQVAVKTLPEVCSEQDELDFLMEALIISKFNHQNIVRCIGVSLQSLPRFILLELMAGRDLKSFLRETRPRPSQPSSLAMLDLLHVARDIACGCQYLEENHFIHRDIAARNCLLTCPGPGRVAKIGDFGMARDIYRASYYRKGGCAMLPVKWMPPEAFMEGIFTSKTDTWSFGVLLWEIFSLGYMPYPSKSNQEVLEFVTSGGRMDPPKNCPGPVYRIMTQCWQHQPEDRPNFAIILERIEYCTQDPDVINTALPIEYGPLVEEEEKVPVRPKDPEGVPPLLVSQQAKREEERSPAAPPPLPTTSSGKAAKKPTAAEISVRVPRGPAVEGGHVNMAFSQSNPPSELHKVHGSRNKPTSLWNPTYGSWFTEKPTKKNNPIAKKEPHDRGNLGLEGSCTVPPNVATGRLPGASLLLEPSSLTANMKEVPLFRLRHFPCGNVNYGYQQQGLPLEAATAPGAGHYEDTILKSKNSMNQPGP

{"columns": ["Smiles Notation", "System Under Test", "pIC50"],
 "data": [
  ["COc1nc(N2CCN(C)CC2)ccc1Nc1ncc(Cl)c(Nc2ccccc2NS(=O)(=O)C2CC2)n1", "ALK tyrosine kinase receptor (Homo sapiens, UniProt Q9UM73, G1202R)", 5.22],
  ["CC(C)Oc1nc(N2CCN(C)CC2)ccc1Nc1ncc(Cl)c(Nc2ccccc2NS(C)(=O)=O)n1", "ALK tyrosine kinase receptor (Homo sapiens, UniProt Q9UM73, G1202R)", 5.03],
  ["COc1nc(N2CCN(CCO)CC2)ccc1Nc1ncc(Cl)c(Nc2ccccc2NS(C)(=O)=O)n1", "ALK tyrosine kinase receptor (Homo sapiens, UniProt Q9UM73, G1202R)", 5.11],
  ["COc1nc(N2CC(O)C2)ccc1Nc1ncc(Cl)c(Nc2ccccc2NS(C)(=O)=O)n1", "ALK tyrosine kinase receptor (Homo sapiens, UniProt Q9UM73, G1202R)", 5.28],
  ["COc1nc(N2CCSCC2)ccc1Nc1ncc(Cl)c(Nc2ccccc2NS(C)(=O)=O)n1", "ALK tyrosine kinase receptor (Homo sapiens, UniProt Q9UM73, G1202R)", 5.10],
  ["COc1nc(N2CCN(C)CC2)ccc1Nc1ncc(Cl)c(Nc2ccccc2NS(C)(=O)=O)n1", "ALK tyrosine kinase receptor (Homo sapiens, UniProt Q9UM73, G1202R)", 5.41]
]}

---

System: HCC78
Assay: Antiproliferative activity against human HCC78 cells harboring SLC34A2-ROS1 after 72 hrs by MTT assay
Type: functional, cell-based
Conditions: HCC78, 72 h
pIC50: −log10 of the molar value.

{"columns": ["Molecule", "pIC50"],
 "data": [
  ["COc1nc(N2CCCCC2)ccc1Nc1ncc(Cl)c(Nc2ccccc2NS(C)(=O)=O)n1", 6.72],
  ["CS(=O)(=O)Nc1ccccc1Nc1nc(Nc2ccc(N3CCCC3)nc2)ncc1Cl", 7.10],
  ["COc1nc(N2CCSCC2)ccc1Nc1ncc(Cl)c(Nc2ccccc2NS(C)(=O)=O)n1", 7.10],
  ["COc1nc(N2CCOCC2)ccc1Nc1ncc(Cl)c(Nc2ccccc2NS(=O)(=O)C2CC2)n1", 6.32],
  ["C/C=C/C(=O)Nc1ccccc1Nc1nc(Nc2ccc(N3CCNC(C)C3)nc2OC)ncc1Cl (centres undefined)", 6.04],
  ["CC(C)Oc1nc(N2CCN(C)CC2)ccc1Nc1ncc(Cl)c(Nc2ccccc2NS(C)(=O)=O)n1", 6.59],
  ["COc1nc(N2CCCC2)ccc1Nc1ncc(Cl)c(Nc2ccccc2NS(=O)(=O)C2CC2)n1", 6.62],
  ["CC(C)Sc1nc(N2CCN(C)CC2)ccc1Nc1ncc(Cl)c(Nc2ccccc2NS(C)(=O)=O)n1", 6.89],
  ["COc1nc(N2CC(O)C2)ccc1Nc1ncc(Cl)c(Nc2ccccc2NS(=O)(=O)C2CC2)n1", 7.05],
  ["C/C=C/C(=O)Nc1ccccc1Nc1nc(Nc2ccc(N3CCCC3)nc2OC)ncc1Cl", 6.80],
  ["COc1nc(N2CCNC(C)C2)ccc1Nc1ncc(Cl)c(Nc2ccccc2NS(C)(=O)=O)n1 (centres undefined)", 6.36],
  ["COc1nc(N2CCCC2)ccc1Nc1ncc(Cl)c(Nc2ccccc2NS(C)(=O)=O)n1", 6.62],
  ["COc1nc(N2CCN(CCO)CC2)ccc1Nc1ncc(Cl)c(Nc2ccccc2NS(C)(=O)=O)n1", 6.96],
  ["C/C=C/C(=O)Nc1ccccc1Nc1nc(Nc2ccc(N3CCN(C)CC3)nc2OC)ncc1Cl", 6.39],
  ["C/C=C/C(=O)Nc1ccccc1Nc1nc(Nc2ccc(N3CCCCC3)nc2OC)ncc1Cl", 6.68],
  ["CCN1CCN(c2ccc(Nc3ncc(Cl)c(Nc4ccccc4NS(C)(=O)=O)n3)c(OC)n2)CC1", 6.13],
  ["CN1CCN(c2ccc(Nc3ncc(Cl)c(Nc4ccccc4NS(=O)(=O)C4CC4)n3)cn2)CC1", 7.05],
  ["COc1nc(N2CCN(C)CC2)ccc1Nc1ncc(Cl)c(Nc2ccccc2NS(C)(=O)=O)n1", 7.37],
  ["CC(C)Sc1nc(N2CCCC2)ccc1Nc1ncc(Cl)c(Nc2ccccc2NS(C)(=O)=O)n1", 6.49]
]}

---

System: A549
Assay: cells
Conditions: Homo sapiens, A549, 72 h
Description: Antiproliferative activity against human A549 cells after 72 hrs by MTT assay
pIC50: −log10 of the molar value.
The following compounds are listed with their measured pIC50 values.
Endpoint Name: pIC50

{"columns": ["Compound", "Result"],
 "data": [
  ["C/C=C/C(=O)Nc1ccccc1Nc1nc(Nc2ccc(N3CCNC(C)C3)nc2OC)ncc1Cl (centres undefined)", "< 6.00"],
  ["COc1nc(N2CCN(C)CC2)ccc1Nc1ncc(Cl)c(Nc2ccccc2NC(C)=O)n1", 6.15],
  ["C/C=C/C(=O)Nc1ccccc1Nc1nc(Nc2ccc(N3CCN(C)CC3)nc2OC)ncc1Cl", "< 6.00"],
  ["Cc1cc(Nc2ncc(Cl)c(Nc3ccccc3S(=O)(=O)C(C)C)n2)c(OC(C)C)cc1C1CCNCC1", "< 6.00"],
  ["COc1nc(N2CCCCC2)ccc1Nc1ncc(Cl)c(Nc2ccccc2NS(C)(=O)=O)n1", "< 6.00"],
  ["COc1nc(N2CCCCC2)ccc1Nc1ncc(Cl)c(Nc2ccccc2NS(=O)(=O)C2CC2)n1", "< 6.00"],
  ["CC(C)Sc1nc(N2CCN(C)CC2)ccc1Nc1ncc(Cl)c(Nc2ccccc2NS(C)(=O)=O)n1", "< 6.00"],
  ["C/C=C/C(=O)Nc1ccccc1Nc1nc(Nc2ccc(N3CCCC3)nc2OC)ncc1Cl", "< 6.00"],
  ["CC(C)Oc1nc(N2CCCC2)ccc1Nc1ncc(Cl)c(Nc2ccccc2NS(C)(=O)=O)n1", 6.09]
]}

---

List of IC50 tested on ALK tyrosine kinase receptor (Homo sapiens, UniProt Q9UM73, L1196M).
Sequence (Q9UM73 19-1620 L1196M limits assumed): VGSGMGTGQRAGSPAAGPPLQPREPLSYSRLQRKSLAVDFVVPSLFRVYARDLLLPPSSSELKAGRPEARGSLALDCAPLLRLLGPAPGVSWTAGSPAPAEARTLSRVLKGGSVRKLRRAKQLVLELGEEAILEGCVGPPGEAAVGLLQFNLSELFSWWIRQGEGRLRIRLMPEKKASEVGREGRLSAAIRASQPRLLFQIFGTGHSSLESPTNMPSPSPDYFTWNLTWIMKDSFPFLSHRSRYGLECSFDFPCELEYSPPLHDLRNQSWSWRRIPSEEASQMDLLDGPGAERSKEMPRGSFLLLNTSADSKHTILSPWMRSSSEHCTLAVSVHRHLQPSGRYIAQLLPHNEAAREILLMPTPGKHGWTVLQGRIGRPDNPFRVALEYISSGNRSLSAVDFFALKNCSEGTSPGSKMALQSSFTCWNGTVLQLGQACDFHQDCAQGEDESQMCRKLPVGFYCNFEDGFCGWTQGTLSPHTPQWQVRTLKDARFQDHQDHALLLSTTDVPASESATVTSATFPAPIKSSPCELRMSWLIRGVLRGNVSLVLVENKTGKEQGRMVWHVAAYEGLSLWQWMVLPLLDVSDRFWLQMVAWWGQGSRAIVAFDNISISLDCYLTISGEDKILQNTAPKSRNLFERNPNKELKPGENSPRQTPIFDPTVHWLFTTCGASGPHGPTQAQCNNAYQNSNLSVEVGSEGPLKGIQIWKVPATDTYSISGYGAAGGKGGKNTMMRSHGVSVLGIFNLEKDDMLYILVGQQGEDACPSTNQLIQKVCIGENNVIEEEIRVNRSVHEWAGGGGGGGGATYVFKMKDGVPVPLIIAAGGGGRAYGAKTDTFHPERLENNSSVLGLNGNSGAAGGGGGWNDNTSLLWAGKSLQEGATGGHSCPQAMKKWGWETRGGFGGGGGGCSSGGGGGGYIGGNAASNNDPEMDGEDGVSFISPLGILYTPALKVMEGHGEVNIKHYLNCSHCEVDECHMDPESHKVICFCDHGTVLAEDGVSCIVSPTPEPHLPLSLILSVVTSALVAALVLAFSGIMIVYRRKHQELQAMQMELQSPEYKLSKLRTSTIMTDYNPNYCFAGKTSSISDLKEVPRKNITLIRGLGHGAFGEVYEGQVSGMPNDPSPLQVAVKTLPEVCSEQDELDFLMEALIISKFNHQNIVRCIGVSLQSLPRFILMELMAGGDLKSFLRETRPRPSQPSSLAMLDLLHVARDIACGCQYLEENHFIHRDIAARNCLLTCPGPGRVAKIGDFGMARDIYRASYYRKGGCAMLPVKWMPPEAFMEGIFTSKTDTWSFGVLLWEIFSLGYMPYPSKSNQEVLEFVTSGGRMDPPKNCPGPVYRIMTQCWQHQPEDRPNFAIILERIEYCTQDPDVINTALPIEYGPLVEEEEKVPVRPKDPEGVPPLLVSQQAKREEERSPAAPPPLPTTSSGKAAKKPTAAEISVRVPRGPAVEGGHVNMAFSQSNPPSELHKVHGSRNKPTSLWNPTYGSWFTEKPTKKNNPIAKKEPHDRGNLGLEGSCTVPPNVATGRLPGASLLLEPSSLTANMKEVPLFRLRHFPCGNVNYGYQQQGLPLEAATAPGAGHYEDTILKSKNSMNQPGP
Endpoint Name: IC50 (nM)

{"columns": ["Smiles Notation", "System Under Test", "Units", "Quantitative Readout"],
 "data": [
  ["COc1nc(N2CC(O)C2)ccc1Nc1ncc(Cl)c(Nc2ccccc2NS(C)(=O)=O)n1", "ALK tyrosine kinase receptor (Homo sapiens, UniProt Q9UM73, L1196M)", "nM", 2000],
  ["CC(C)Oc1nc(N2CCN(C)CC2)ccc1Nc1ncc(Cl)c(Nc2ccccc2NS(C)(=O)=O)n1", "ALK tyrosine kinase receptor (Homo sapiens, UniProt Q9UM73, L1196M)", "nM", 4800],
  ["COc1nc(N2CCN(C)CC2)ccc1Nc1ncc(Cl)c(Nc2ccccc2NS(=O)(=O)C2CC2)n1", "ALK tyrosine kinase receptor (Homo sapiens, UniProt Q9UM73, L1196M)", "nM", 3900],
  ["COc1nc(N2CCSCC2)ccc1Nc1ncc(Cl)c(Nc2ccccc2NS(C)(=O)=O)n1", "ALK tyrosine kinase receptor (Homo sapiens, UniProt Q9UM73, L1196M)", "nM", 1600],
  ["COc1nc(N2CCN(C)CC2)ccc1Nc1ncc(Cl)c(Nc2ccccc2NS(C)(=O)=O)n1", "ALK tyrosine kinase receptor (Homo sapiens, UniProt Q9UM73, L1196M)", "nM", 1300],
  ["COc1nc(N2CCN(CCO)CC2)ccc1Nc1ncc(Cl)c(Nc2ccccc2NS(C)(=O)=O)n1", "ALK tyrosine kinase receptor (Homo sapiens, UniProt Q9UM73, L1196M)", "nM", 2200]
]}

---

List of IC50 tested on ALK tyrosine kinase receptor (Homo sapiens, UniProt Q9UM73).
Sequence (Q9UM73 whole entry): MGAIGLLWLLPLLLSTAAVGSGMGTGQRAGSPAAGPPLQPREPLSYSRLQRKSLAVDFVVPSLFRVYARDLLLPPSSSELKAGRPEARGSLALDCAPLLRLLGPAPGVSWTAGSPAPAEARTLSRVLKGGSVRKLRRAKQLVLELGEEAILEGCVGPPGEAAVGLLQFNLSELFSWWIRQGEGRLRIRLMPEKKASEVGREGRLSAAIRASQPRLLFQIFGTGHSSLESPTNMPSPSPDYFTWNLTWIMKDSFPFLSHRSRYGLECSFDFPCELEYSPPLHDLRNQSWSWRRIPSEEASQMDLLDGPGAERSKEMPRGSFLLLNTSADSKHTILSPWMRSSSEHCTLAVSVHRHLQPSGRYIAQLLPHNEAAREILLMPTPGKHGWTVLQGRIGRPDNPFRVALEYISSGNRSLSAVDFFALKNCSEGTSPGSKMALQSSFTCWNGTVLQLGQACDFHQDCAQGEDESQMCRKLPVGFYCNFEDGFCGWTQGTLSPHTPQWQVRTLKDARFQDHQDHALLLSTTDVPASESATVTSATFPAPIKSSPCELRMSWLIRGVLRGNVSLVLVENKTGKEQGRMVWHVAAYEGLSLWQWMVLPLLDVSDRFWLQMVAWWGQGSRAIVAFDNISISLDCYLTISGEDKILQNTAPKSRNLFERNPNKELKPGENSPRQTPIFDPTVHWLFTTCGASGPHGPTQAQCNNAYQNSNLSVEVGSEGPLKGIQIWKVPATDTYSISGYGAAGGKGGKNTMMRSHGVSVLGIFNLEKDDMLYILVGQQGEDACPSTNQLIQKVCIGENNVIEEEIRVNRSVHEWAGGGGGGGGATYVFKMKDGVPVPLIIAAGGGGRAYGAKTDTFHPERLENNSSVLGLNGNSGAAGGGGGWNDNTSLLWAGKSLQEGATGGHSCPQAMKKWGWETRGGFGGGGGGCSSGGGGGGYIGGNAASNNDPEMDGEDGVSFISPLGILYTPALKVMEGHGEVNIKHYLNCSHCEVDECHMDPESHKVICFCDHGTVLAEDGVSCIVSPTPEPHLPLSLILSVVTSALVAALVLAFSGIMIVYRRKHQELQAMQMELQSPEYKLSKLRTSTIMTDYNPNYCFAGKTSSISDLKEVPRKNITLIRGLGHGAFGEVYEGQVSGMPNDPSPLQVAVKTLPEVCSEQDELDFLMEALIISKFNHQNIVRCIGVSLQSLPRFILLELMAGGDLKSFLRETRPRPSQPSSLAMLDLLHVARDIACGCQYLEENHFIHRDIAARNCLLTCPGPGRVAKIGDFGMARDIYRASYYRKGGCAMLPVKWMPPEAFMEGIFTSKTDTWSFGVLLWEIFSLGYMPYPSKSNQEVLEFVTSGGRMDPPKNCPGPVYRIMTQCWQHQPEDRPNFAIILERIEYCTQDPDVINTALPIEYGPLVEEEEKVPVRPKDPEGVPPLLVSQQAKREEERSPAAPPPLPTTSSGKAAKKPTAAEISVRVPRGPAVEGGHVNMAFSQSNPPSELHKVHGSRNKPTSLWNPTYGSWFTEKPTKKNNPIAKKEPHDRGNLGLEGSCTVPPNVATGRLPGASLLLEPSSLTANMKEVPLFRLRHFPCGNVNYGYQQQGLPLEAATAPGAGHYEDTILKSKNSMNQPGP

{"columns": ["Smiles Notation", "System Under Test", "IC50 / µM"],
 "data": [
  ["COc1nc(N2CCSCC2)ccc1Nc1ncc(Cl)c(Nc2ccccc2NS(C)(=O)=O)n1", "ALK tyrosine kinase receptor (Homo sapiens, UniProt Q9UM73)", 2.8],
  ["COc1nc(N2CCN(C)CC2)ccc1Nc1ncc(Cl)c(Nc2ccccc2NS(C)(=O)=O)n1", "ALK tyrosine kinase receptor (Homo sapiens, UniProt Q9UM73)", 2.1],
  ["COc1nc(N2CCN(C)CC2)ccc1Nc1ncc(Cl)c(Nc2ccccc2NS(=O)(=O)C2CC2)n1", "ALK tyrosine kinase receptor (Homo sapiens, UniProt Q9UM73)", 3.9],
  ["COc1nc(N2CCN(CCO)CC2)ccc1Nc1ncc(Cl)c(Nc2ccccc2NS(C)(=O)=O)n1", "ALK tyrosine kinase receptor (Homo sapiens, UniProt Q9UM73)", 3.2],
  ["COc1nc(N2CC(O)C2)ccc1Nc1ncc(Cl)c(Nc2ccccc2NS(C)(=O)=O)n1", "ALK tyrosine kinase receptor (Homo sapiens, UniProt Q9UM73)", 1.4],
  ["CC(C)Oc1nc(N2CCN(C)CC2)ccc1Nc1ncc(Cl)c(Nc2ccccc2NS(C)(=O)=O)n1", "ALK tyrosine kinase receptor (Homo sapiens, UniProt Q9UM73)", 4.2]
]}
